Where these numbers come from: ChEMBL document CHEMBL5357068

target: Toll-like receptor 7 (Mus musculus); test: Agonist activity at mouse TLR7
Sequence (P58681 whole entry): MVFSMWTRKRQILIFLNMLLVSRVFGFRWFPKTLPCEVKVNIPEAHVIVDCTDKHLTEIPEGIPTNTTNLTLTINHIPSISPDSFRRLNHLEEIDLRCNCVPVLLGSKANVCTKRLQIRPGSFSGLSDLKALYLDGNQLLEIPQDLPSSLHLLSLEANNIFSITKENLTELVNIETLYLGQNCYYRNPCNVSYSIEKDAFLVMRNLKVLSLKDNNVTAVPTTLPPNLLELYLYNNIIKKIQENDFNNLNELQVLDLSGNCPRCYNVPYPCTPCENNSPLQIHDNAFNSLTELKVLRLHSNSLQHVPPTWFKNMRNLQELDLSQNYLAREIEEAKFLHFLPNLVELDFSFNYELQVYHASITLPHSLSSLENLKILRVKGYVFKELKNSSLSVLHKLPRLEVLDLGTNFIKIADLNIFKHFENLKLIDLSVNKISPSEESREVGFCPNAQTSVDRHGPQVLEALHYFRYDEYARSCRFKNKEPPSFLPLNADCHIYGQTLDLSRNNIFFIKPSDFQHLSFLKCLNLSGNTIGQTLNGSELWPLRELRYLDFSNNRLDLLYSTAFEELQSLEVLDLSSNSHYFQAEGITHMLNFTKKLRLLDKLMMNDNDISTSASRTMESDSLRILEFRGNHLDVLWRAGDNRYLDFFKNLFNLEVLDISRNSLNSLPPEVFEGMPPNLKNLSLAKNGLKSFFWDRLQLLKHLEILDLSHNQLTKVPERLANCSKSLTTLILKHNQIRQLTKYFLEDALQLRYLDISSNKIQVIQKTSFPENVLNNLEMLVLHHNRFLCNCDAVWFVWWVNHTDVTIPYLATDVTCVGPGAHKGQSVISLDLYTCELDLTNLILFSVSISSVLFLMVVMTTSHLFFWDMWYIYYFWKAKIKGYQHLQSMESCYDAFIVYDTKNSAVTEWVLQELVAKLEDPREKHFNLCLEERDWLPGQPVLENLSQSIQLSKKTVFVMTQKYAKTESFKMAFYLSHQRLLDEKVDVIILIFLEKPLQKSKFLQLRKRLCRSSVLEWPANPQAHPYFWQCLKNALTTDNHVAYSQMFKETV
property name: EC50 (nM)

sample_smiles=CCCCNc1nc(N)nc2cnn(Cc3ccc(CNC4CCC4)cc3OC)c12 target_or_test_system="Toll-like receptor 7 (Mus musculus)" measured_value=121

====

test: Metabolic stability in human liver microsomes assessed as compound remaining; type: ADME, Microsome; note: time not given here
Lab note: anything with Stability below 60% is marked satisfied; values at 60% or higher are marked not satisfied.

sample_smiles=CCC[C@@H](CCO)Nc1nc(N)nc2cnn(Cc3cnc(CNC4CCOCC4)cc3OC)c12 category_label="not satisfied"
sample_smiles=CCCCN(C)c1nc(N)nc2cnn(Cc3ccc(CNC4CCOCC4)cc3OC)c12 category_label=satisfied
sample_smiles=CCCCNc1nc(N)nc2cnn(Cc3ccc(CN4CC5(CNC5)C4)cc3OC)c12 category_label="not satisfied"
sample_smiles=CCC[C@@H](CCO)Nc1nc(N)nc2cnn(Cc3ncc(CNC4CCOCC4)cc3OC)c12 category_label="not satisfied"
sample_smiles=CCC[C@@H](CCNC(C)=O)Nc1nc(N)nc2cnn(Cc3ccc(CNC4CCOCC4)cc3OC)c12 category_label="not satisfied"
sample_smiles=CCCCNc1nc(N)nc2cnn(Cc3ccc(C(=O)NC4CCOCC4)cc3OC)c12 category_label="not satisfied"
sample_smiles=CC[C@@H](CCO)Nc1nc(N)nc2cnn(Cc3ccc(CNC4CCOCC4)cc3OC)c12 category_label="not satisfied"
sample_smiles=CCC[C@@H](CO)Nc1nc(N)nc2cnn(Cc3ccc(CNC4CCOCC4)cc3OC)c12 category_label="not satisfied"
sample_smiles=CCC[C@@H](CCO)Nc1nc(N)nc2cnn(Cc3ccc(CNC4CCOCC4)cc3F)c12 category_label="not satisfied"
sample_smiles=CCC[C@@H](CCO)Nc1nc(N)nc2cnn(Cc3ccc(CNC4CCOCC4)cc3OC(F)F)c12 category_label=satisfied
sample_smiles=COc1cc(CNC2CCOCC2)ccc1Cn1ncc2nc(N)nc(N[C@H](CCO)C(C)C)c21 category_label="not satisfied"
sample_smiles=CCCCNc1nc(N)nc2cnn(Cc3ccc(CNC4CCOCC4)cc3OC)c12 category_label="not satisfied"
sample_smiles=CCCCNc1nc(N)nc2cnn(Cc3ccc(CN4CCCCC4)cc3OC)c12 category_label=satisfied
sample_smiles=COc1cc(CNC2CCOCC2)ccc1Cn1ncc2nc(N)nc(N[C@@H](C)CCO)c21 category_label="not satisfied"
sample_smiles=CCC[C@@H](CCO)Nc1nc(N)nc2cnn(Cc3ccc(CNC4CCOCC4)cc3)c12 category_label="not satisfied"
sample_smiles=CCC[C@@H](CCO)Nc1nc(N)nc2cnn(Cc3ccc(CNC4CCOCC4)cc3OC)c12 category_label="not satisfied"
sample_smiles=COc1cc(CNC2CCOCC2)ccc1Cn1ncc2nc(N)nc(N[C@H](CCO)C3CC3)c21 category_label=satisfied
sample_smiles=CCC[C@@H](CCO)Nc1nc(N)nc2cnn(Cc3ccc(CNC4CCOCC4)c4cccnc34)c12 category_label=satisfied
sample_smiles=CCCCNc1nc(N)nc2cnn(Cc3ccc(Cn4ccnc4)cc3OC)c12 category_label=satisfied
sample_smiles=CCCCNc1nc(N)nc2cnn(Cc3ccc(CNCc4ccncc4)cc3OC)c12 category_label=satisfied
sample_smiles=CCC[C@@H](CCO)Nc1nc(N)nc2cnn(Cc3ccc(CNC4CCOCC4)nc3)c12 category_label="not satisfied"
sample_smiles=CCCCNc1nc(N)nc2cnn(Cc3ccc(CNC4COC4)cc3OC)c12 category_label=satisfied
